test system: Factor Xa; test: anti-heparin assay, % Factor Xa inhibition at single concentration (chromogenic substrate S-2765); type: biochemical; details: Single concentration (10 ug/ml)
Measure: % FactorXa Inhibition (%)

[
  {
    "Structure as smiles": "COC(=O)c1cc(OCCN)ccc1NC(=O)c1cc(OCCC(C)C)ccc1NC(=O)c1cc(OCCN)ccc1C(O)O",
    "Units label": "%",
    "Measured": 19.99
  },
  {
    "Structure as smiles": "CC(C)(C)c1cc(N)c(SCCN)c(NC(=O)c2cccc(C(=O)Nc3cc(C(C)(C)C)cc(N)c3SCCN)c2)c1",
    "Units label": "%",
    "Measured": 2.855
  },
  {
    "Structure as smiles": "CC(C)(C)c1cc(NC(=O)CCCN)c(SCCN)c(NC(=O)c2cccc(C(=O)Nc3cc(C(C)(C)C)cc(NC(=O)CCCN)c3SCCN)c2)c1",
    "Units label": "%",
    "Measured": 2.583
  },
  {
    "Structure as smiles": "CC(C)(C)c1cc(N)c(SCCN)c(NC(=O)c2cc(C(=O)Nc3cc(C(C)(C)C)cc(N)c3SCCN)ncn2)c1",
    "Units label": "%",
    "Measured": 32.02
  },
  {
    "Structure as smiles": "CC(C)(C)c1cc(NC(=N)N)c(SCCN)c(NC(=O)c2cc(C(=O)Nc3cc(C(C)(C)C)cc(NC(=N)N)c3SCCN)c(OCCN)cc2OCCN)c1",
    "Units label": "%",
    "Measured": 13.26
  },
  {
    "Structure as smiles": "CC(C)(C)c1cc(NC(=O)c2cccc(C(=O)Nc3cc(C(C)(C)C)cc(NC(=O)[C@H](N)Cc4ccccc4)c3SCCN)c2)c(SCCN)c(NC(=O)[C@H](N)Cc2ccccc2)c1",
    "Units label": "%",
    "Measured": 7.41
  },
  {
    "Structure as smiles": "CC(C)(C)c1cc(NC(=O)CCCCN)c(SCCN)c(NC(=O)c2cccc(C(=O)Nc3cc(C(C)(C)C)cc(NC(=O)CCCCN)c3SCCN)c2)c1",
    "Units label": "%",
    "Measured": 1.903
  },
  {
    "Structure as smiles": "CC(C)(C)c1cc(NC(=O)c2cccc(C(=O)Nc3cc(C(C)(C)C)cc(NC(=O)c4cc(N)ccc4OCCCCCN)c3SCCN)c2)c(SCCN)c(NC(=O)c2cc(N)ccc2OCCCCCN)c1",
    "Units label": "%",
    "Measured": 36.84
  },
  {
    "Structure as smiles": "CC(=O)Nc1cc(C(C)(C)C)cc(NC(=O)c2cccc(C(=O)Nc3cc(C(C)(C)C)cc(NC(C)=O)c3SCCNC(=N)N)c2)c1SCCNC(=N)N",
    "Units label": "%",
    "Measured": 7.852
  },
  {
    "Structure as smiles": "COC(=O)c1cc(NC(=O)c2cc(NC(=O)c3cc(NC(=O)c4cc(NC(=O)c5cc(NC(=O)c6cc(N)ccc6OC)ccc5OCCN)ccc4OC)ccc3OCCN)ccc2OC)ccc1OCCN",
    "Units label": "%",
    "Measured": 43.03
  },
  {
    "Structure as smiles": "CC(C)OC(=O)c1cc(NC(=O)c2cc(OCCN)cc(C(=O)Nc3cc(C(=O)OC(C)C)cc(NC(=O)[C@H](N)CCCNC(=N)N)c3SCCN)c2)c(SCCN)c(NC(=O)[C@H](N)CCCNC(=N)N)c1",
    "Units label": "%",
    "Measured": 59.82
  },
  {
    "Structure as smiles": "NCCc1cc(Br)cc(C#Cc2cccc(C#Cc3cc(Br)cc(CCN)c3)c2)c1",
    "Units label": "%",
    "Measured": 46.5
  }
]

Attribution: patent US20140051762A1
